- measured target: CB2 receptor (Mus musculus)
- Construct: Mouse spleen was used a source of CB2 receptors; from tissue; host or cells: mouse spleen
- Sequence (P47936 whole entry): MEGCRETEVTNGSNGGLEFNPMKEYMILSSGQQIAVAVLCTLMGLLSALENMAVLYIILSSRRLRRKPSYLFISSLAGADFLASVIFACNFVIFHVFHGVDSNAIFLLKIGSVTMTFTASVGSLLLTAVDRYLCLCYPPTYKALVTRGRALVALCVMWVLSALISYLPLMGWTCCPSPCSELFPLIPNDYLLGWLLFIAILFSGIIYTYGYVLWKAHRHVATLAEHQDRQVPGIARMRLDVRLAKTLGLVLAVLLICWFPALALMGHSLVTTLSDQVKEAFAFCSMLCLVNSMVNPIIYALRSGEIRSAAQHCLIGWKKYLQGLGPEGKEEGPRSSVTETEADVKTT
- assay text: Radioligand binding assay ([3H]CP-55,940 displacement), mouse spleen as source of CB2
- assay context: Ki in nM for the CB2 Receptor, mouse spleen; [3H]CP-55,940; Ki from IC50 by Cheng and Prusoff
endpoint name: Ki (nM)
Give bare numbers, in nM.

Could you report Ki for every entry in the following list?
1. CC1=CC[C@@H]2[C@@H](C1)c1c(O)cc(C3CC4CCC3(C)C4(C)C)cc1OC2(C)C (stereo partly drawn) [AM731]
2. CCCCCCC1(c2cc(O)c3c(c2)OC(C)(C)[C@@H]2CC=C(C)C[C@@H]32)SCCS1
3. CC1=CC[C@@H]2[C@@H](C1)c1c(O)cc(C3CC4CCC3(C)C4(C)C)cc1OC2(C)C (stereo partly drawn) [AM732]

Solution:
1. 6.1
2. 1.7
3. 2

Reference source: patent US20050239874A1
